test system: Huh-7 (human hepatoma cells); experiment: MTT cancer cell growth inhibition; type: cell-based; settings: Homo sapiens, Huh-7, 72 h, MTT, 72 hours incubation, Huh-7 cells; read-out: GI50 Huh-7
So basically, if GI50 comes in under 40 nM it's satisfied, and if it's 40 nM or more it's not satisfied.

Solved cases (5 shown):
C=C1NC(=O)c2ccc(F)c(n2)CNC(=O)C[C@@H](/C=C/CCSC(C)=O)OC(=O)[C@H](C)NC1=O [Compound 92]: not satisfied
C/C=C1\NC(=O)c2cc(F)cc(n2)CNC(=O)C[C@@H](/C=C/CCS)OC(=O)[C@H](C(C)C)NC1=O [Compound 107]: satisfied
C/C=C1\NC(=O)c2nc(ccc2F)CNC(=O)C[C@@H](/C=C/CCS)OC(=O)[C@H](Cc2ccccc2)NC1=O [Compound 115]: not satisfied
C/C=C1\NC(=O)c2nc(ccc2F)CNC(=O)C[C@@H](/C=C/CCS)OC(=O)[C@H](C(C)C)NC1=O [Compound 106]: satisfied
C/C=C1\NC(=O)c2nc(ccc2SCC)CNC(=O)C[C@@H](/C=C/CCSC(=O)CCCCCCC)OC(=O)[C@H](C(C)C)NC1=O [Compound 247]: not satisfied

Asked: Is GI50 of C/C=C1\NC(=O)c2nc(ccc2F)CNC(=O)C[C@@H](/C=C/CCSC(C)=O)OC(=O)[C@H](C)NC1=O [Example 63] strictly below 40 nM?
Given back: not satisfied

Asked: Please do the same for C/C=C1\NC(=O)c2cc(F)cc(n2)CNC(=O)C[C@@H](/C=C/CCS)OC(=O)[C@H](Cc2ccc(O)cc2)NC1=O [Compound 129] as well.
Given back: satisfied

Asked: Similarly, C/C=C1\NC(=O)c2cc(SC)cc(n2)CNC(=O)C[C@@H](/C=C/CCSC(=O)CCCCCCC)OC(=O)[C@H](C)NC1=O [Compound 181] ?
Given back: satisfied

Asked: Next: C/C=C1\NC(=O)c2cccc(n2)CNC(=O)C[C@@H](/C=C/CCSC(C)=O)OC(=O)[C@H](CCCCN)NC1=O [Compound 15]
Given back: not satisfied

Asked: Same read-out for C=C1NC(=O)c2cc(F)cc(n2)CNC(=O)C[C@@H](/C=C/CCS)OC(=O)[C@H](C)NC1=O [Compound 141] ?
Given back: satisfied

Asked: Entry to check: C/C=C1\NC(=O)c2nc(ccc2SC)CCNC(=O)C[C@@H](/C=C/CCSC(C)=O)OC(=O)[C@H](C(C)C)NC1=O [Compound 223]
Given back: not satisfied

Asked: How about this compound: C/C=C1\NC(=O)c2cc(SC)cc(n2)CNC(=O)C[C@@H](/C=C/CCSC(C)=O)OC(=O)[C@H](CC)NC1=O [Compound 178]
Given back: not satisfied

----------
system: Bel-7402 (human hepatoma cells); assay: MTT cancer cell growth inhibition; type: cell-based; details: Homo sapiens, Bel-7402, 72 h, MTT, 72 hours incubation, Bel-7402 cells; read-out: GI50 Bel-7402
Endpoint Name: GI50 (nM)
Please reply with the bare figure in nM and do not write the unit itself.

C/C=C1\NC(=O)c2ccc(F)c(n2)CNC(=O)C[C@@H](/C=C/CCSC(=O)CCCCCCC)OC(=O)[C@H](CC)NC1=O: 93
C/C=C1\NC(=O)c2ccc(SC)c(n2)CNC(=O)C[C@@H](/C=C/CCSC(C)=O)OC(=O)[C@@H](C)NC1=O: 14
C/C=C1\NC(=O)c2cc(SC)cc(n2)CNC(=O)C[C@@H](/C=C/CCSC(=O)CCCCCC)OC(=O)[C@H](C(C)C)NC1=O: 26
C/C=C1\NC(=O)c2cc(SC)cc(n2)CNC(=O)C[C@@H](/C=C/CCSC(C)=O)OC(=O)[C@H](CCCCNC(=O)OCC2c3ccccc3-c3ccccc32)NC1=O: 89
C=C1NC(=O)c2nc(ccc2SC)CNC(=O)C[C@@H](/C=C/CCSC(C)=O)OC(=O)[C@H](C(C)C)NC1=O: 36

Now take the following compound into account.
Asked: Using the record for C/C=C1\NC(=O)c2nc(ccc2F)CNC(=O)C[C@@H](/C=C/CCSC(C)=O)OC(=O)[C@H](CCCCNC(=O)OCC2c3ccccc3-c3ccccc32)NC1=O , report its GI50.
Given back: 42
